- target.of.assay: T1, TRCW5 antigen (CD3δε-Fc-Avi) (biotinylated (site not stated))
- T1 construct: also called recombinant CD3
- protocol.description: ELISA after heat
Overview of recorded % Retained 65° C. for various binders

- binder: "CD3B2074 (scFv) scFv: QVQLVQSGAEVKKPGSSVKVSCKASGYTFTRSTMHWVRQAPGQGLEWIGYINPSSAYTNYAQKFQGRVTLTADKSTSTAYMELSSLRSEDTAVYYCASPQVHYDYNGFPYWGQGTLVTVSSGGSEGKSSGSGSESKSTGGSEIVLTQSPATLSASPGERVTLSCSASSSVSYMNWYQQKPGTSPRRWIYDSSKLASGVPARFSGSGSGRDYTLTISSLEPEDFAVYYCQQWSRNPPTFGGGTKVEIK"
  readout.unit: "%"
  % Retained 65° C.: 6
- binder: "CD3B2040 (scFv) scFv: QVQLVQSGAEVKKPGSSVKVSCKASGYTFTRSTMHWVKQAPGQGLEWMGYINPSSAYTNYAQKFQGRVTLTADKSTSTAYMELSSLRSEDTAVYYCASPQVHYDYNGFPYWGQGTLVTVSSGGSEGKSSGSGSESKSTGGSEIVLTQSPATLSASPGERVTLSCSASSSVSYMNWYQQKPGQAPRRWIYDSSKLASGVPARFSGSGSGRDYTLTISSLEPEDFAVYYCQQWSRNPPTFGGGTKVEIK"
  readout.unit: "%"
  % Retained 65° C.: 52
- binder: "CD3B2043 (scFv) scFv: QVQLVQSGAEVKKPGSSVKVSCKASGYTFTRSTMHWVRQAPGQGLEWIGYINPSSAYTNYNQKFQGRVTLTADKSTSTAYMELSSLRSEDTAVYYCASPQVHYDYNGFPYWGQGTLVTVSSGGSEGKSSGSGSESKSTGGSEIVLTQSPATLSASPGERVTLSCSASSSVSYMNWYQQKPGTAPRRLIYDSSKLASGVPARFSGSGSGRDYTLTISSLEPEDFAVYYCQQWSRNPPTFGGGTKVEIK"
  readout.unit: "%"
  % Retained 65° C.: 4
- binder: "CD3B2047 (scFv) scFv: QVQLVQSGAEVKKPGSSVKVSCKASGYTFTRSTMHWVKQAPGQGLEWIGYINPSSAYTNYNQKFQGRVTLTADKSTSTAYMELSSLRSEDTAVYYCASPQVHYDYNGFPYWGQGTLVTVSSGGSEGKSSGSGSESKSTGGSEIVLTQSPATLSASPGERVTLSCSASSSVSYMNWYQQKPGQSPRRLIYDSSKLASGVPARFSGSGSGRDYTLTISSLEPEDFAVYYCQQWSRNPPTFGGGTKVEIK"
  readout.unit: "%"
  % Retained 65° C.: 15
- binder: "CD3B2071 (scFv) scFv: QVQLVQSGAEVKKPGSSVKVSCKASGYTFTRSTMHWVRQAPGQGLEWMGYINPSSAYTNYNQKFQGRVTLTADKSTSTAYMELSSLRSEDTAVYYCASPQVHYDYNGFPYWGQGTLVTVSSGGSEGKSSGSGSESKSTGGSEIVLTQSPATLSASPGERVTLSCSASSSVSYMNWYQQKPGTAPRRLIYDSSKLASGVPARFSGSGSGRDYTLTISSLEPEDFAVYYCQQWSRNPPTFGGGTKVEIK"
  readout.unit: "%"
  % Retained 65° C.: 4
- binder: "CD3B2081 (scFv) scFv: QVQLVQSGAEVKKPGSSVKVSCKASGYTFTRSTMHWVRQAPGQGLEWIGYINPSSAYTNYAQKFQGRVTLTADKSTSTAYMELSSLRSEDTAVYYCASPQVHYDYNGFPYWGQGTLVTVSSGGSEGKSSGSGSESKSTGGSEIVLTQSPATLSASPGERVTLSCSASSSVSYMNWYQQKPGQAPRRWIYDSSKLASGVPARFSGSGSGRDYTLTISSLEPEDFAVYYCQQWSRNPPTFGGGTKVEIK"
  readout.unit: "%"
  % Retained 65° C.: 38
- binder: "CD3B2042 (scFv) scFv: QVQLVQSGAEVKKPGSSVKVSCKASGYTFTRSTMHWVRQAPGQGLEWIGYINPSSAYTNYNQKFQGRVTLTADKSTSTAYMELSSLRSEDTAVYYCASPQVHYDYNGFPYWGQGTLVTVSSGGSEGKSSGSGSESKSTGGSEIVLTQSPATLSASPGERVTLSCSASSSVSYMNWYQQKPGTSPRRLIYDSSKLASGVPARFSGSGSGRDYTLTISSLEPEDFAVYYCQQWSRNPPTFGGGTKVEIK"
  readout.unit: "%"
  % Retained 65° C.: 2
- binder: "CD3B2073 (scFv) scFv: QVQLVQSGAEVKKPGSSVKVSCKASGYTFTRSTMHWVRQAPGQGLEWMGYINPSSAYTNYNQKFQGRVTLTADKSTSTAYMELSSLRSEDTAVYYCASPQVHYDYNGFPYWGQGTLVTVSSGGSEGKSSGSGSESKSTGGSEIVLTQSPATLSASPGERVTLSCSASSSVSYMNWYQQKPGQAPRRWIYDSSKLASGVPARFSGSGSGRDYTLTISSLEPEDFAVYYCQQWSRNPPTFGGGTKVEIK"
  readout.unit: "%"
  % Retained 65° C.: 27
- binder: "CD3B2086 (scFv) scFv: QVQLVQSGAEVKKPGSSVKVSCKASGYTFTRSTMHWVRQAPGQGLEWMGYINPSSAYTNYAQKFQGRVTLTADKSTSTAYMELSSLRSEDTAVYYCASPQVHYDYNGFPYWGQGTLVTVSSGGSEGKSSGSGSESKSTGGSEIVLTQSPATLSASPGERVTLSCSASSSVSYMNWYQQKPGTSPRRLIYDSSKLASGVPARFSGSGSGRDYTLTISSLEPEDFAVYYCQQWSRNPPTFGGGTKVEIK"
  readout.unit: "%"
  % Retained 65° C.: 5
- binder: "CD3B2051 (scFv) scFv: QVQLVQSGAEVKKPGSSVKVSCKASGYTFTRSTMHWVKQAPGQGLEWMGYINPSSAYTNYNQKFQGRVTLTADKSTSTAYMELSSLRSEDTAVYYCASPQVHYDYNGFPYWGQGTLVTVSSGGSEGKSSGSGSESKSTGGSEIVLTQSPATLSASPGERVTLSCSASSSVSYMNWYQQKPGQAPRRLIYDSSKLASGVPARFSGSGSGRDYTLTISSLEPEDFAVYYCQQWSRNPPTFGGGTKVEIK"
  readout.unit: "%"
  % Retained 65° C.: 32
